Experiment: Antagonist activity at human recombinant CXCR2 assessed as inhibition of CXCL1-induced neutrophil chemotaxis after 45 mins by calcein-AM dye based plate reader method
Endpoint name: IC50 (nM)
Kindly answer with a numeric value in nM, unit omitted.

Query block: // returns reported IC50 for input CN1CC2(CC(S(=O)(=O)c3c(Cl)ccc(NC(=O)Nc4cccc(F)c4Cl)c3O)C2)C1
Result block: 631

Query block: Look up IC50: CCS(=O)(=O)c1c(Cl)ccc(NC(=O)Nc2cccc(Cl)c2Cl)c1O
Result block: 6310

Query block: # query: IC50 of entry O=C(Nc1ccc(Cl)c(S(=O)(=O)N2CCNCC2)c1O)Nc1cccc(Cl)c1Cl
Result block: 10000

Query block: Find the recorded IC50 belonging to O=C(Nc1ccc(Cl)c(S(=O)(=O)C2CCCC2)c1O)Nc1cccc(F)c1Cl and report it.
Result block: 25

Query block: What value of measured IC50 is listed for CN1CC[C@H](S(=O)(=O)c2c(Cl)ccc(NC(=O)Nc3cccc(F)c3Cl)c2O)C1 ?
Result block: 79

Query block: Name the recorded IC50 for CN1CCC(S(=O)(=O)c2c(Cl)ccc(NC(=O)Nc3cccc(F)c3Cl)c2O)CC1 .
Result block: 25

Query block: What value of measured IC50 is listed for O=C(Nc1ccc(Cl)c(S(=O)(=O)C2CCCCC2)c1O)Nc1cccc(F)c1Cl ?
Result block: 79

Query block: Reported IC50, molecule CC(C)N1CCN(S(=O)(=O)c2c(Cl)ccc(NC(=O)Nc3cccc(F)c3Cl)c2O)CC1 : ____
Result block: 2000

Query block: Looking for the measured IC50 of O=C(Nc1ccc(Cl)c(S(=O)(=O)C2CCC2)c1O)Nc1cccc(F)c1Cl , can you help?
Result block: 13

The reported numbers originate from BindingDB's records for doi:10.1021/acsmedchemlett.5b00489.
